Biological target: cannabinoid-CB1 receptor (Rattus norvegicus)
Construct: Male normotensive rats (225-300 g; Harlan, Horst, The Netherlands) were anaesthetized; from tissue; host or cells: whole animal: male normotensive rats (Harlan)
Assay: In vivo CB1 receptor antagonism, CP-55,940-induced hypotension test
Conditions: po, CP-55,940 (0.1 mg/kg i.v.) induced hypotension, read-out: CB-agonist induced blood pressure rat ID50
Method: In vivo cannabinoid-CB1 receptor antagonism was assessed with the CP-55,940-induced hypotension test in rat. Male normotensive rats (225-300 g; Harlan, Horst, The Netherlands) were anaesthetized with pentobarbital (80 mg/kg ip). Blood pressure was measured, via a cannula inserted into the left carotid artery, by means of a Spectramed DTX-plus pressure transducer (Spectramed B. V., Bilthoven, The Netherlands). […]
READOUT_NAME: ED50 (mg/kg)
Give the number; mg/kg is assumed, so skip it.

Readout ED50 for CN=C(NS(=O)(=O)N1CCC(F)(F)CC1)C1=NN(c2ccc(Cl)cc2)C(c2ccccc2)C1 (racemic) [racemate (1 + 2)] , test system cannabinoid-CB1 receptor (Rattus norvegicus), was 9

Readout ED50 for CN/C(=N\S(=O)(=O)N1CCC(F)(F)CC1)C1=NN(c2ccc(Cl)cc2)[C@@H](c2ccccc2)C1 (single isomer, unassigned) [Compound 1] , test system cannabinoid-CB1 receptor (Rattus norvegicus), was 6

###

Target: human cannabinoid CB1 receptor (Homo sapiens, UniProt P21554)
Sequence (P21554 whole entry): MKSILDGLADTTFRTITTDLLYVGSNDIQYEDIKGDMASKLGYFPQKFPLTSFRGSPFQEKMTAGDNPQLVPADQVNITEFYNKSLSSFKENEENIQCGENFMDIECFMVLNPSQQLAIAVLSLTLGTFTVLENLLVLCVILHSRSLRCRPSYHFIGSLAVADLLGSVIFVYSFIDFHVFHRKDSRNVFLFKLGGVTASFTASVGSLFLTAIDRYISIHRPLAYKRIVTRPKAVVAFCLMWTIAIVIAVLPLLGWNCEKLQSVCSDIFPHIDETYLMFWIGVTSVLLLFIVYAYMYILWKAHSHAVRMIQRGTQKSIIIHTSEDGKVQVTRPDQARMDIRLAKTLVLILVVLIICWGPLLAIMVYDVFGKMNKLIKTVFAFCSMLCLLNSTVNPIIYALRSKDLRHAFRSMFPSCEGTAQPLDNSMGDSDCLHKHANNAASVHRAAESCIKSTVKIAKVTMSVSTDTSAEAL
Assay: In vitro affinity for cannabinoid-CB1 receptors, displacement of [3H]CP-55,940
Assay type: binding
Conditions: h-CB1 receptor, CHO cell membranes; read-out: receptor binding displacement [3H]-CP-55,940 pKi (converted)
For each of the compounds below, state its Ki.
Respond with a number, then the unit of measure.

Ki for CN=C(NS(=O)(=O)N1CCC(F)(F)CC1)C1=NN(c2ccc(Cl)cc2)C(c2ccccc2)C1 (racemic) [racemate (1 + 2)] is 0.0251 µM

Ki for CN/C(=N\S(=O)(=O)N1CCC(F)(F)CC1)C1=NN(c2ccc(Cl)cc2)[C@@H](c2ccccc2)C1 (single isomer, unassigned) is 0.01 µM

Ki for CN/C(=N\S(=O)(=O)N1CCC(F)(F)CC1)C1=NN(c2ccc(Cl)cc2)[C@H](c2ccccc2)C1 (single isomer, unassigned) is 0.251 µM

Ki for CN/C(=N\S(=O)(=O)N1CCC(F)CC1)C1=NN(c2ccc(Cl)cc2)[C@@H](c2ccccc2)C1 is 0.0158 µM

###

Target: UniProtKB P21554
Assay: In vitro affinity for cannabinoid-CB1 receptors, displacement of [3H]CP-55,940
Format: binding
READOUT_NAME: Ki (nM)
Give the number; nM is assumed, so skip it.

Readout Ki for CN/C(=N\S(=O)(=O)N1CCC(C(F)(F)F)CC1)C1=NN(c2ccc(Cl)cc2)[C@@H](c2ccccc2)C1 , test system UniProtKB P21554, was 3.16

###

Molecular target: cannabinoid-CB1 receptor (Rattus norvegicus, UniProt P20272)
Construct: Male normotensive rats (225-300 g; Harlan, Horst, The Netherlands) were anaesthetized; from tissue; host or cells: whole animal: male normotensive rats (Harlan)
Sequence (P20272 whole entry): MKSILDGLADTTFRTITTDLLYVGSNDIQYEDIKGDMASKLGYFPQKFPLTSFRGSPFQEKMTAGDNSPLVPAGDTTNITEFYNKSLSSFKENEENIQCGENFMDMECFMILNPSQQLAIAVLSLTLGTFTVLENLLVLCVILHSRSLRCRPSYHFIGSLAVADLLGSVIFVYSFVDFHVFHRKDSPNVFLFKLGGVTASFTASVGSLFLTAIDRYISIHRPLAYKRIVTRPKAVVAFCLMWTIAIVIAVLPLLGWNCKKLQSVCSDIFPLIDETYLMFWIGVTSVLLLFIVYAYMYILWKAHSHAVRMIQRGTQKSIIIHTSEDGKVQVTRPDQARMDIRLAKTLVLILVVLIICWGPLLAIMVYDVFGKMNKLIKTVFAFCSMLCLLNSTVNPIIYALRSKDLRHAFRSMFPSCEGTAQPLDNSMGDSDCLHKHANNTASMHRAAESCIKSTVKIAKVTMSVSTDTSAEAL
Assay: In vivo CB1 receptor antagonism, CP-55,940-induced hypotension test
Settings: po, CP-55,940 (0.1 mg/kg i.v.) induced hypotension, read-out: CB-agonist induced blood pressure rat ID50
READOUT_NAME: ED50

ED50 for CN/C(=N\S(=O)(=O)N1CCCCC1)C1=NN(c2ccc(Cl)cc2)C(c2ccccc2)C1 (stereo not drawn) [EP 1 713 475 Compound 10, reference compound] is > 30 mg/kg

ED50 for CN/C(=N\S(=O)(=O)N1CCC(F)(F)CC1)C1=NN(c2ccc(Cl)cc2)[C@H](c2ccccc2)C1 (single isomer, unassigned) [Compound 2] is > 30 mg/kg

ED50 for CN/C(=N\S(=O)(=O)N1CCCCC1)C1=NN(c2ccc(Cl)cc2)C(c2ccccc2)C1 (racemic) [reference compound] is > 30 mg/kg
